Here, each record is paired with measured Minimum inhibitory concentration data.
System: clinical strains of P. aeruginosa
Method: MIC, microdilution, clinical strains
Format: cell-based
Test Settings: Pseudomonas aeruginosa strain 3, Muller Hinton broth-cation adjusted, 0.02% BSA, 0.2% acetic acid
Where a SMILES comes first, the peptide text is derived from it. [ ]: non-standard residue; d: D form.
API note: the answer field is a bare number with no unit suffix.

Molecule: CC(C)C[C@@H](NC(=O)[C@H](N)CCCCN)C(=O)N[C@H](CCCCN)C(=O)N[C@H](Cc1c[nH]c2ccccc12)C(=O)N[C@H](Cc1ccccc1)C(=O)N[C@H](Cc1c[nH]c2ccccc12)C(=O)N[C@H](CC(C)C)C(=O)N[C@H](Cc1ccccc1)C(=O)N[C@H](CCCCN)C(=O)N[C@H](CCCCN)C(=O)N[C@H](CCCNC(=N)N)C(=O)O [Chain311D] (H-[dK][dL][dK][dW][dF][dW][dL][dF][dK][dK][dR]-OH)
Readout Kind: Minimum inhibitory concentration
Measured Result: 16

Molecule: CC(C)C[C@@H](NC(=O)[C@@H](CCCCN)NC(=O)[C@@H](Cc1c[nH]c2ccccc12)NC(=O)[C@@H](CCCCN)NC(=O)[C@@H](C)NC(=O)[C@@H](Cc1c[nH]cn1)NC(=O)[C@@H](CC(C)C)NC(=O)[C@@H](CCCNC(=N)N)NC(=O)[C@@H](Cc1c[nH]c2ccccc12)NC(=O)[C@H](N)Cc1c[nH]c2ccccc12)C(=O)N[C@H](Cc1c[nH]c2ccccc12)C(=O)O [Chain109D] (H-[dW][dW][dR][dL][dH][dA][dK][dW][dK][dL][dW]-OH)
Readout Kind: Minimum inhibitory concentration
Measured Result: 16

Molecule: CC(C)C[C@@H](NC(=O)[C@@H](CCCCN)NC(=O)[C@@H](CCCCN)NC(=O)[C@@H](Cc1ccccc1)NC(=O)[C@@H](CC(C)C)NC(=O)[C@@H](Cc1c[nH]c2ccccc12)NC(=O)[C@@H](CCCNC(=N)N)NC(=O)[C@@H](Cc1c[nH]c2ccccc12)NC(=O)[C@@H](CCCCN)NC(=O)[C@@H](CCCNC(=N)N)NC(=O)[C@H](N)CCCCN)C(=O)O [Chain310D] (H-[dK][dR][dK][dW][dR][dW][dL][dF][dK][dK][dL]-OH)
Readout Kind: Minimum inhibitory concentration
Measured Result: 16

Qu. Could you share which Minimum inhibitory concentration value was measured for CC(C)C[C@@H](NC(=O)[C@@H](Cc1c[nH]c2ccccc12)NC(=O)[C@@H](Cc1ccccc1)NC(=O)[C@@H](Cc1c[nH]c2ccccc12)NC(=O)[C@@H](CCCCN)NC(=O)[C@@H](CCCNC(=N)N)NC(=O)[C@H](N)Cc1c[nH]c2ccccc12)C(=O)N[C@H](Cc1ccccc1)C(=O)N[C@H](CCCCN)C(=O)N[C@H](CCCCN)C(=O)N[C@H](CCCNC(=N)N)C(=O)O [Chain309D] (H-[dW][dR][dK][dW][dF][dW][dL][dF][dK][dK][dR]-OH) ?
Ans. 16

Qu. // query: CC(C)C[C@@H](NC(=O)[C@H](N)CCCNC(=N)N)C(=O)N[C@H](CCCCN)C(=O)N[C@H](Cc1c[nH]c2ccccc12)C(=O)N[C@H](Cc1ccccc1)C(=O)N[C@H](Cc1c[nH]c2ccccc12)C(=O)N[C@H](CC(C)C)C(=O)N[C@H](Cc1ccccc1)C(=O)N[C@H](CCCNC(=N)N)C(=O)N[C@H](CCCCN)C(=O)N[C@H](CCCNC(=N)N)C(=O)O [Chain307D] (H-[dR][dL][dK][dW][dF][dW][dL][dF][dR][dK][dR]-OH)
Ans. 16

Qu. // query: CC[C@@H](C)[C@@H](NC(=O)[C@@H](Cc1c[nH]c2ccccc12)NC(=O)[C@H](N)CCCCN)C(=O)N[C@@H](C(=O)N[C@H](Cc1c[nH]c2ccccc12)C(=O)N[C@H](CCCNC(=N)N)C(=O)N[C@H](Cc1c[nH]c2ccccc12)C(=O)N[C@H](CCCNC(=N)N)C(=O)N[C@H](Cc1ccccc1)C(=O)N[C@H](CCCCN)C(=O)N[C@H](CCCNC(=N)N)C(=O)O)C(C)C [Chain201D] (H-[dK][dW][dI][dV][dW][dR][dW][dR][dF][dK][dR]-OH)
Ans. 4

meta.source: patent US10457710B2
